target: Mu-type opioid receptor (Cavia porcellus) (UniProt P97266); test: Relative potency with respect to morphine was evaluated for mu-receptor of guinea pig brain
Sequence (P97266 whole entry): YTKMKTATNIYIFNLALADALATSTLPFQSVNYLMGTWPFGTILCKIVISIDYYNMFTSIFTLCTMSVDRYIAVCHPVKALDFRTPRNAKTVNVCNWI
Non-standard residues stand in square brackets, D forms with d. Residues, ends and D or L forms follow the SMILES beside them. ξ: configuration not given here. Met(O) = CS(=O)CC[C@H](N)C(=O)O; ξA = CC(N)C(=O)O; Sar = CNCC(=O)O
measurement.kind: Relative potency
Number, no unit, nothing else.

{"compound": "C[C@H](NC(=O)[C@@H](N)Cc1ccc(O)cc1)C(=O)N[C@@H](Cc1ccccc1)C(=O)NCC(N)=O (H-YAFG-NH2)", "Relative potency": 0.11}
{"compound": "COC(=O)CN(C)C(=O)[C@H](Cc1ccccc1)NC(=O)[C@H](CC[S+](C)[O-])NC(=O)[C@H](Cc1ccc(O)cc1)N=C(N)N (stereo partly specified)", "Relative potency": 0.17}
{"compound": "CN(CC(N)=O)C(=O)[C@H](Cc1ccccc1)NC(=O)[C@H](CC[S+](C)[O-])NC(=O)[C@@H](N)Cc1ccc(O)cc1 (stereo partly specified) (H-Y[Met(O)]F[Sar]-NH2)", "Relative potency": 0.67}
{"compound": "CC(NC(=O)[C@H](Cc1ccccc1)NC(=O)[C@H](CC[S+](C)[O-])NC(=O)[C@@H](N)Cc1ccc(O)cc1)C(N)=O (stereo partly specified) (H-Y[Met(O)]F[ξA]-NH2)", "Relative potency": 0.24}
{"compound": "COC(=O)CN(C)C(=O)[C@H](Cc1ccccc1)NC(=O)[C@H](CC[S+](C)[O-])NC(=O)[C@@H](N)Cc1ccc(O)cc1 (stereo partly specified) (H-Y[Met(O)]F[Sar]-OMe)", "Relative potency": 0.67}

Could you now look at the following compound, please?
Task: Requested field: Relative potency. Item: CN(CC(=O)O)C(=O)[C@H](Cc1ccccc1)NC(=O)[C@H](CC[S+](C)[O-])NC(=O)[C@@H](N)Cc1ccc(O)cc1 (stereo partly specified) (H-Y[Met(O)]F[Sar]-OH)
Result: 0.05

Each recorded value in this set is attributed to ChEMBL document CHEMBL1123825.
